Readings of IC50 for the listed compounds
- TEST SYSTEM: Sphingosine 1-phosphate receptor 3 (Homo sapiens)
- Sequence (Q99500 whole entry): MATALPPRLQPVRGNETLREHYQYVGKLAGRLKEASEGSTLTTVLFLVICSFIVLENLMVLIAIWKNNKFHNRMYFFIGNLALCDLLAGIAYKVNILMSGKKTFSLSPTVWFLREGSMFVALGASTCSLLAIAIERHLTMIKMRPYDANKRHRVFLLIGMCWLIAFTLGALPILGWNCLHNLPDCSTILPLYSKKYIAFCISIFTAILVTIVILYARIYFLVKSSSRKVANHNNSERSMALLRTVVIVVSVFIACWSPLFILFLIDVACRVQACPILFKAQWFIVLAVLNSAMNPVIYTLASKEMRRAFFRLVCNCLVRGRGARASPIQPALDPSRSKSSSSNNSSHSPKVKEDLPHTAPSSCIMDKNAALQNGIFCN
- METHOD: Displacement of [33P]S1P from human S1P3 receptor expressed in HEK293T cells after 1 hr by liquid scintillation counting analysis

STRUCTURE SMILES | TEST SYSTEM | SIGN QUALIFIER | IC50 [µM]
N[C@@H](CC(=O)O)c1nc(-c2ccc(OCc3ccc(-c4ccccc4)cc3)c(C(F)(F)F)c2)c[nH]1 | Sphingosine 1-phosphate receptor 3 (Homo sapiens) | > | 10
CCCCCCCCOc1ccc(NC(=O)[C@@](C)(N)/C=C/C(=O)O)cc1 | Sphingosine 1-phosphate receptor 3 (Homo sapiens) | = | 10
CCCCCCCCc1ccc(NC(=O)[C@@](C)(N)CC(=O)O)cc1C(F)(F)F | Sphingosine 1-phosphate receptor 3 (Homo sapiens) | > | 10
O=C(O)CCc1nc(-c2ccc(OCc3ccc(-c4ccccc4)cc3)c(C(F)(F)F)c2)c[nH]1 | Sphingosine 1-phosphate receptor 3 (Homo sapiens) | > | 10
CCCCCCCCOc1ccc(NC(=O)[C@@H](N)CC(=O)O)cc1 | Sphingosine 1-phosphate receptor 3 (Homo sapiens) | = | 1.05
CCCCCCCCOc1ccc(NC(=O)[C@@](C)(N)CCC(=O)O)cc1 | Sphingosine 1-phosphate receptor 3 (Homo sapiens) | = | 10
C[C@](N)(CC(=O)O)c1nc(-c2ccc(OCc3ccc(-c4ccccc4)cc3)c(C(F)(F)F)c2)c[nH]1 | Sphingosine 1-phosphate receptor 3 (Homo sapiens) | > | 10
CCCCCCCCOc1ccc(NC(=O)[C@@H](N)CC(=O)O)cc1C(F)(F)F | Sphingosine 1-phosphate receptor 3 (Homo sapiens) | > | 10
CCCCCCCCOc1ccc(NC(=O)[C@@H](N)CCC(=O)O)cc1 | Sphingosine 1-phosphate receptor 3 (Homo sapiens) | = | 10
CCCCCCCCOc1ccc(NC(=O)[C@@](C)(N)CC(=O)O)cc1C(F)(F)F | Sphingosine 1-phosphate receptor 3 (Homo sapiens) | > | 10
